I'd be grateful if you could share measured MIC for these entries.
- Tested on: Saccharomyces cerevisiae
- ASSAY_METHOD_TEXT: Antifungal activity against Saccharomyces cerevisiae by two fold serial dilution method
- Format: functional
Kindly format the answer as number then unit.

stdin: Any idea what its MIC is? The compound is CC(=N/NC(=O)COc1ccc2ccccc2c1)/C(Cl)=N\Nc1ccc(Cl)cc1
stdout: 16.5 µg/mL

stdin: I'd like to know its MIC. The compound in question is CC(=O)N1CCN(c2ccc(OCC3COC(Cn4ccnc4)(c4ccc(Cl)cc4Cl)O3)cc2)CC1 (stereo not drawn)
stdout: 4.12 µg/mL

stdin: # lookup: MIC of CC(=N/NC(=O)COc1ccc(Cl)cc1Cl)/C(=N\Nc1ccc(Cl)cc1)Sc1ccccc1
stdout: 4.12 µg/mL
